Molecular target: Programmed cell death protein 1/Programmed cell death 1 ligand 1 (Homo sapiens, UniProt Q15116+Q9NZQ7)
Sequence (Q15116 whole entry): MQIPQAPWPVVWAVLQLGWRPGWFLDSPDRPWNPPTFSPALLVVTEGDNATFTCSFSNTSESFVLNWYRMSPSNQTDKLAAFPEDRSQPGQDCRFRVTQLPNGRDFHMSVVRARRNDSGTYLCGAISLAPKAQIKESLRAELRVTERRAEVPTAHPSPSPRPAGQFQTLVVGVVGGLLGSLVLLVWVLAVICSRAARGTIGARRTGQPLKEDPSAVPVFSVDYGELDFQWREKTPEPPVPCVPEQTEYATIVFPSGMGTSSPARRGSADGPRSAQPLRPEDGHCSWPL
Sequence (Q9NZQ7 whole entry): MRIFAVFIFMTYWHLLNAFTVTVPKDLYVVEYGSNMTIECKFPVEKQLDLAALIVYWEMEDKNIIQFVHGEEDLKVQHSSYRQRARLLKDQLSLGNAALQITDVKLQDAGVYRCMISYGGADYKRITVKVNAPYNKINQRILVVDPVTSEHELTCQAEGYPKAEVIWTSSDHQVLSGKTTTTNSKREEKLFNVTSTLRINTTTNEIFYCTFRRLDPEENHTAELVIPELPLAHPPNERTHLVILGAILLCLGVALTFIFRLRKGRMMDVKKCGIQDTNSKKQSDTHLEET
Test: In Vitro Activity Assay: In vitro activity evaluation: Cisbio PD-1/PD-L1 binding assay kit was applied for the detection method of in vitro enzymology level.Screening Principles and Methods of PD-1/PD-L1 Small Molecule Inhibitors1) Principle: PD-1 protein is with HIS tag, and PD-1 ligand PD-L1 is with hFc tag. Eu labeled anti-hFc antibody and XL665 labeled anti-HIS antibody are combined with the above two label proteins respectively. After laser excitation, energy can be transferred from donor Eu to receptor XL665, allowing XL665 to glow. […] Reagents should be dispensed in the following order. For 384-well white ELISA plate, 2 μl of diluent or target compound diluted with diluent was added to each well, and then 4 μl of PD-1 protein and 4 μl of PD-L1 protein were added per well, incubated for 15 min at room temperature; and 10 μl of a mixture of anti-Tag1-Eu3+ and anti-Tag2-XL665 was added per well and incubated for 1 h to 4 h at room temperature and the fluorescence signals at 665 nm and 620 nm were measured with an Envison instrument. HTRF rate=(665 nm/620 nm)*104. 8-10 concentrations were detected for each compound and IC50 was calculated by Graphpad software.
reported-metric: IC50 (nM)
# unit: nM | format: bare number

{"item-smiles": "OCCN(CCO)Cc1cc(Cl)c(OCc2cccc(-c3ccccc3)c2Br)cc1OCc1cccnc1", "reported-metric": "IC50", "unit-annotation": "nM", "experimental-result": 51}
{"item-smiles": "O=C(O)[C@H](CO)NCc1cc(Cl)c(OCc2cccc(-c3ccccc3)c2Cl)cc1OCc1cccnc1", "reported-metric": "IC50", "unit-annotation": "nM", "experimental-result": 40.1}
{"item-smiles": "C[C@H](NCc1cc(Cl)c(OCc2cccc(-c3ccccc3)c2Br)cc1OCc1cccnc1)C(=O)O", "reported-metric": "IC50", "unit-annotation": "nM", "experimental-result": 5.29}
{"item-smiles": "O=C(O)[C@H](CO)NCc1cc(Cl)c(OCc2cccc(-c3ccccc3)c2F)cc1OCc1cccnc1", "reported-metric": "IC50", "unit-annotation": "nM", "experimental-result": 134}
{"item-smiles": "C/C(=C\\C(=O)O)NCc1cc(Cl)c(OCc2cccc(-c3ccccc3)c2Br)cc1OCc1cccnc1", "reported-metric": "IC50", "unit-annotation": "nM", "experimental-result": 2.33}

get_value(item= O=C(O)[C@H](CO)NCc1cc(Cl)c(OCc2cccc(-c3ccccc3)c2)cc1OCc1cccnc1 , readout=IC50) returns 318

get_value(item= OCCNCc1cc(Cl)c(OCc2cccc(-c3ccccc3)c2Br)cc1OCc1cccnc1 , readout=IC50) returns 53.8

get_value(item= O=S(=O)(O)CCNCc1cc(Cl)c(OCc2cccc(-c3ccccc3)c2Br)cc1OCc1cccnc1 , readout=IC50) returns 16200

get_value(item= NC(=O)C[C@H](NCc1cc(Cl)c(OCc2cccc(-c3ccccc3)c2Br)cc1OCc1cccnc1)C(=O)O , readout=IC50) returns 835
